B1: Lysozyme C, P61626 (parent)
chain: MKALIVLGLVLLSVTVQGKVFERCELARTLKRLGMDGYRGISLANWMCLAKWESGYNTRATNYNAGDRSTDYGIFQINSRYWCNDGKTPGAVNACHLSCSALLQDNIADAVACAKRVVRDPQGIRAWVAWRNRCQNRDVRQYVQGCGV

Variants of: B1
Settings: Homo sapiens; pH 3.1; Thermal; DSC; glycine-HCl 0.05 M; reversible: yes; structure 1LZ1; whole UniProt chain shown
Reported Metric: unfolding enthalpy (van 't Hoff) (kcal/mol)
Please give a number only; it is taken to be in kcal/mol.

Some entries whose results are on file:
# Biopolymer Sequence, Unit Annotation, Number
measured = [
    ("MKALIVLGLVLLSVTVQGKVFERCELARTLKRLGMDGYRGISLANWMCLAKWESGYNTRATNYNAGDRSTDYGIFQINSRYWCNDGKVPGAVNACHLSCSALLQDNIADAVACAKRVVRDPQGIRAWVAWRNRCQNRDVRQYVQGCGV [T88V]", "kcal/mol", 123),
    ("MKALIVLGLVLLSVTVQGKVFERCELARTLKRLGMDGYRGISLANWMCLAKWESGYNARATNYNAGDRSTDYGIFQINSRYWCNDGKTPGAVNACHLSCSALLQDNIADAVACAKRVVRDPQGIRAWVAWRNRCQNRDVRQYVQGCGV [T58A]", "kcal/mol", 121),
    ("MKALIVLGLVLLSVTVQGKVFERCELARTLKRLGMDGYRGISLANWMCLAKWESGYNTRATNYNAGDRSVDYGIFQINSRYWCNDGKTPGAVNACHLSCSALLQDNIADAVACAKRVVRDPQGIRAWVAWRNRCQNRDVRQYVQGCGV [T70V]", "kcal/mol", 114),
]

Tell me measured unfolding enthalpy (van 't Hoff) for MKALIVLGLVLLSVTVQGKVFERCELARTLKRLGMDGYRGISLANWMCLAKWESGYNTRATNYNAGDRSADYGIFQINSRYWCNDGKTPGAVNACHLSCSALLQDNIADAVACAKRVVRDPQGIRAWVAWRNRCQNRDVRQYVQGCGV [T70A] please.
118

Give the reported unfolding enthalpy (van 't Hoff) for this variant. MKALIVLGLVLLSVTVQGKVFERCELARTLKRLGMDGYRGISLANWMCLAKWESGYNTRATNYNAGDRSTDYGIFQINSRYWCNDGKAPGAVNACHLSCSALLQDNIADAVACAKRVVRDPQGIRAWVAWRNRCQNRDVRQYVQGCGV [T88A]
113

Write down unfolding enthalpy (van 't Hoff) measured for item MKALIVLGLVLLSVTVQGKVFERCELARTLKRLGMDGYRGISLANWMCLAKWESGYNVRATNYNAGDRSTDYGIFQINSRYWCNDGKTPGAVNACHLSCSALLQDNIADAVACAKRVVRDPQGIRAWVAWRNRCQNRDVRQYVQGCGV [T58V]
123

FYI, the data here is from FireProtDB (doi:10.1021/bi9910169).
